Cited source for all entries: PubChem BioAssay (Tox21)

- assay-info: qHTS RealTime-Glo MT Cell Viability Assay in HEK293 cells - 8 hour (AID 1224887); note: top concentration of the series differs between compounds; % is set by controls: 0 for no effect and ±100 for the full control effect; nearly all actives have a fitted effect of over 50% in size
- cond: RealTime-Glo luminescence; series mostly up to 76.8 µM
- Description: U.S. Tox21 Program National Center for Advancing Translational Sciences [NCATS] NIH Chemical Genomics Center [NCGC] U.S. Environmental Protection Agency [EPA] National Institutes of Environmental Health Sciences [NIEHS] National Toxicology Program [NTP] U.S. Food and Drug Administration [FDA] Tox21 Assay Overview: Measure of cell viability is critical in the cell-base assay. Analysis of cell viability is necessary for the characterization of cell responses to cytotoxic drugs and environmental stress. […]
Results filed as inconclusive are left out. Active and inactive are the calls of the source. Calls come from the whole dose curve; as a rule, active = well fitted cell-killing curve with a large enough effect in the repeat runs; inconclusive = weak or mixed curves, or effect the other way; inactive = flat fitted curve, though single readings scatter.
observable: Potency

Consider the following illustrative entries.
COCCOCCOCCOCCOC : inactive
Cc1cccc(OCCOc2cccc(C)c2)c1 : inactive
CC1=CC(=O)/C(=C(/C)O)C(=O)O1 : inactive
Cl/C(=C\n1cncn1)c1ccc(Cl)cc1Cl : inactive
Cc1occc1S : inactive

Sample O=C1CCCCCO1 ; Potency observed: inactive

Sample Nc1cnn([C@@H]2O[C@H](CO)[C@@H](O)[C@H]2O)c(=O)n1 ; Potency observed: inactive

Sample O=[N+]([O-])c1cccc(Cl)c1Cl ; Potency observed: inactive

---

- assay-info: qHTS assay to identify small molecule antagonists of the progesterone receptor (PR) signaling pathway - cell viability counter screen (AID 1346798);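 note: HEK293T PR-UAS-bla cells stimulated with the agonist R5020; % is set by controls: 0 for no effect and ±100 for the full control effect; nearly all actives have a fitted effect of over 50% in size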
- cond: PR-UAS-bla HEK293T viability, CellTiter-Glo luminescence, 16 h; series mostly up to 92.4 µM
- Text: National Center for Advancing Translational Sciences [NCATS] NIH Chemical Genomics Center [NCGC] U.S. Environmental Protection Agency [EPA] National Institutes of Environmental Health Sciences [NIEHS] National Toxicology Program [NTP] U.S. Food and Drug Administration [FDA] Progesterone receptor (PR), a nuclear hormone receptor, plays an important role in development, metabolic homeostasis and reproduction. It is activated by the steroid hormone progesterone. […]
Results filed as inconclusive are left out. Calls of active or inactive are those of the source. Calls follow the shape of the dose curve; as a rule, active = well fitted cell-killing curve with a large enough effect in the repeat runs; inconclusive = weak or mixed curves, or effect the other way; inactive = no such curve, though single readings can be large or run the other way.
Pick one: yes (1) = active, no (0) = inactive

The examples below pair each entry with its known result.
CCN1CCC[C@H]1CNC(=O)c1c(OC)ccc(Br)c1OC : no (0)
C=CC(C)(CCC=C(C)C)OC(=O)c1ccccc1 (centres undefined) : no (0)

From here, focus on the item given below.
Enquiry: Returns: the outcome recorded for NC1CCN(c2nc3c(cc2F)c(=O)c(C(=O)O)cn3-c2ccc(F)cc2F)C1 (centres undefined) in this assay.
Return: no (0)

---

- assay-info: qHTS assay to identify small molecule antagonists of the estrogen related receptor signaling pathway with the pleiotropic PPARgamma coactivator (PGC) from Tox21 10K library (AID 1224841); note: actives are mostly falling curves and most rising ones were filed inactive; nearly all actives have a fitted effect of over 50% in size
- cond: PGC/ERR reporter cell line, ONE-Glo luciferase, 18 h; series mostly up to 92.4 µM
Records with an inconclusive call do not appear. The source made the active and inactive calls. No rule for the calls is given here.
Pick one: active, inactive

The examples below pair each entry with its known result.
CCCCCCc1ccc(N)cc1 : inactive
CCN(CC)CCOC(=O)C1(c2ccccc2)CCCC1 : inactive
Cc1ccc(C)o1 : inactive
Cc1cccc(OCCOc2cccc(C)c2)c1 : inactive
CC(=O)N(CC(=O)N(C)C)c1ccccc1 : inactive
NC(N)=N/N=C/c1c(Cl)cccc1Cl : inactive

Enquiry: Returns: the outcome recorded for Nc1nc(N)c2nc(CNc3ccc(C(=O)N[C@@H](CCC(=O)O)C(=O)O)cc3)cnc2n1 in this assay.
Return: active

Enquiry: Returns: the outcome recorded for NC(=S)N/N=C/c1cccnc1 in this assay.
Return: inactive

Enquiry: Returns: the outcome recorded for O=C(O)COC(=O)Cc1ccccc1Nc1c(Cl)cccc1Cl in this assay.
Return: inactive

Enquiry: Returns: the outcome recorded for Cc1ccccn1 in this assay.
Return: inactive

Enquiry: Returns: the outcome recorded for Oc1ccc(Cc2ccccc2)cc1 in this assay.
Return: inactive

Enquiry: Returns: the outcome recorded for O=[N+]([O-])c1cccc(Cl)c1Cl in this assay.
Return: inactive

Enquiry: Returns: the outcome recorded for Cl/C(=C\n1cncn1)c1ccc(Cl)cc1Cl in this assay.
Return: inactive

Enquiry: Returns: the outcome recorded for Oc1ccc(O)c2c(O)cccc12 in this assay.
Return: inactive

---

- assay-info: qHTS assay for small molecule agonists of the antioxidant response element (ARE) signaling pathway (AID 743202); for activation: % is set by controls: 0 for no effect and ±100 for the full control effect
- cond: HepG2 ARE-bla reporter, beta-lactamase FRET, 16 h; series mostly up to 73.3 µM
Records with an inconclusive call do not appear. Active and inactive are the calls of the source. The call rests on the fitted dose curve; in most records, active means well fitted activation curve with a large enough effect in the signal ratio in the repeat runs (not every such curve was filed as active); inconclusive means weak or mixed curves, or effect the other way; inactive means no such curve, though single readings can be large or run the other way; the % refers to the signal ratio.
Pick one: true for active, false for inactive

The examples below pair each entry with its known result.
CN1CCC(OC(c2ccccc2)c2ccccc2)CC1 : false
Oc1ccc(Sc2ccc(O)cc2)cc1 : true
CC(=O)OCCc1ccccc1 : false
O=C(C(=O)c1ccc(Br)cc1)c1ccc(Br)cc1 : false

From here, focus on the item given below.
Enquiry: Returns: the outcome recorded for O=C=NC1CCC(CC2CCC(N=C=O)CC2)CC1 (stereo not given) in this assay.
Return: false

---

- experimental-system: Aromatase (Homo sapiens)
- assay-info: qHTS assay to identify aromatase inhibitors (AID 743083); note: nearly all actives have a fitted effect of over 55% in size
- cond: MCF-7 aro ERE, testosterone-driven ERE luciferase, 24 h; series mostly up to 70.3 µM
Records with an inconclusive call do not appear. Activity calls are given as the source filed them. Calls come from the whole dose curve; as a rule, active = well fitted inhibition curve with a large enough effect in the repeat runs; inconclusive = weak or mixed curves; inactive = no such curve, though single readings can be large or run the other way.
Pick one: true for active, false for inactive

The examples below pair each entry with its known result.
CC(C)(C)C1CCCCC1O (centres undefined) : false
CC[C@]12CCCN3CCc4c(n(c5ccccc45)C(=O)C1)[C@@H]32 : true
CN(C)CCCOc1nn(Cc2ccccc2)c2ccccc12 : false
CCCCCCCCC(CO)CCCCCC (centres undefined) : false

Enquiry: Returns: the outcome recorded for SC1CCCC1 in this assay.
Return: false

Enquiry: Returns: the outcome recorded for c1ccc(OCc2ccc(CCCN3CCOCC3)cc2)cc1 in this assay.
Return: false

Enquiry: Returns: the outcome recorded for C=CCCCCCC in this assay.
Return: false

Enquiry: Returns: the outcome recorded for CCOc1ccc2[nH]cc(C(=O)NCc3ccccc3)c(=O)c2n1 in this assay.
Return: true

---

- experimental-system: Cytochrome P450 2C19 (Homo sapiens)
- assay-info: Cytochrome P450 Family 2 Subfamily C Member 19 (CYP2C19) small molecule antagonists: luciferase reporter qHTS assay (AID 1671197); note: nearly all actives have a fitted effect of over 65% in size
- cond: P450-Glo CYP2C19 enzyme, luciferin luminescence, 1 h; series mostly up to 115 µM
Records with an inconclusive call do not appear. Active and inactive are the calls of the source. Calls follow the shape of the dose curve; as a rule, active = well fitted inhibition curve with a large enough effect in the repeat runs; inconclusive = weak or mixed curves; inactive = no such curve, though single readings can be large or run the other way.
Pick one: YES for active, NO for inactive

The examples below pair each entry with its known result.
CCCCCC/C=C/C=O : YES
COc1cc(C(C)(C)C)c(O)c(C(C)(C)C)c1 : YES
O=C(c1ccc(O)cc1)c1ccc(O)cc1 : YES
O=C(O)Cc1sc(-c2ccccc2)nc1-c1ccc(Cl)cc1 : NO

Enquiry: Returns: the outcome recorded for CN(C)CC[C@@H](c1ccc(Br)cc1)c1ccccn1 in this assay.
Return: NO

Enquiry: Returns: the outcome recorded for Cc1cc(CC(=O)O)c(C)n1-c1ccc(Cl)cc1 in this assay.
Return: YES

Enquiry: Returns: the outcome recorded for O=C1CCCCCO1 in this assay.
Return: NO

Enquiry: Returns: the outcome recorded for CC(=O)N(CC(=O)N(C)C)c1ccccc1 in this assay.
Return: NO

Enquiry: Returns: the outcome recorded for Cc1cc(NC(=O)C(=O)O)cc(C)c1Oc1ccc(O)c2c1CCC2 in this assay.
Return: YES

Enquiry: Returns: the outcome recorded for CCCc1ccccc1 in this assay.
Return: NO

Enquiry: Returns: the outcome recorded for O=S1(=O)c2cccc3cccc(c23)N1CCCN1CCN(c2ccc(F)cc2)CC1 in this assay.
Return: YES

Enquiry: Returns: the outcome recorded for NC(N)=N/N=C/c1c(Cl)cccc1Cl in this assay.
Return: NO

Enquiry: Returns: the outcome recorded for O=C(NN1CCCC1)NS(=O)(=O)c1ccc(Cl)cc1 in this assay.
Return: NO

---

- assay-info: qHTS assay to identify small molecule agonists of the peroxisome proliferator-activated receptor delta (PPARd) signaling pathway - cell viability counter screen (AID 743211); note: nearly all actives have a fitted effect of over 55% in size
- cond: PPARd-bla HEK293H viability, CellTiter-Glo luminescence, 17 h; series mostly up to 62.6 µM
Records with an inconclusive call do not appear. Calls of active or inactive are those of the source. Calls come from the whole dose curve; as a rule, active = well fitted cell-killing curve with a large enough effect in the repeat runs; inconclusive = weak or mixed curves; inactive = no such curve, though single readings can be large or run the other way.
Pick one: active, inactive

The examples below pair each entry with its known result.
CC(=O)O[C@@H]1C(=O)O[C@@H]2[C@H]1OC(=O)[C@@H]2OC(C)=O : inactive
COc1ccc([C@@H]2Sc3ccccc3N(CCN(C)C)C(=O)[C@@H]2OC(C)=O)cc1 : inactive
OCCC1CCCCN1 (stereo unspecified) : inactive
CC(C)(C)c1ccc(S)cc1 : inactive
O=C(NN1CCCC1)NS(=O)(=O)c1ccc(Cl)cc1 : inactive

Enquiry: Returns: the outcome recorded for CC(=O)[C@@]1(O)CC[C@H]2[C@@H]3C[C@H](C)C4=CC(=O)CC[C@]4(C)[C@H]3CC[C@@]21C in this assay.
Return: inactive

Enquiry: Returns: the outcome recorded for Cc1cccc(Oc2ccccc2)c1 in this assay.
Return: inactive

Enquiry: Returns: the outcome recorded for CC(O)C1CCCCC1 (stereo unspecified) in this assay.
Return: inactive

Enquiry: Returns: the outcome recorded for Oc1ccc(O)c2c(O)cccc12 in this assay.
Return: inactive

Enquiry: Returns: the outcome recorded for CCOc1ccc(NC(=O)CC(C)=O)cc1 in this assay.
Return: inactive

Enquiry: Returns: the outcome recorded for Cn1c(N)nc2nc[nH]c2c1=O in this assay.
Return: inactive

Enquiry: Returns: the outcome recorded for CC(C)(C)C(=O)OCOP(=O)(COCCn1cnc2c(N)ncnc21)OCOC(=O)C(C)(C)C in this assay.
Return: inactive

Enquiry: Returns: the outcome recorded for CCN1CCC[C@H]1CNC(=O)c1c(OC)ccc(Br)c1OC in this assay.
Return: inactive

Enquiry: Returns: the outcome recorded for CC(C)(C)c1ccc(OCC2CO2)cc1 (stereo unspecified) in this assay.
Return: inactive

Enquiry: Returns: the outcome recorded for Oc1ccc2c(c1)OCO2 in this assay.
Return: inactive

Enquiry: Returns: the outcome recorded for NC(N)=NN=C(/C=C/c1ccc([N+](=O)[O-])o1)/C=C/c1ccc([N+](=O)[O-])o1 in this assay.
Return: active

Enquiry: Returns: the outcome recorded for O=C1c2cccc(O)c2C(=O)c2c(O)cc(CO)cc21 in this assay.
Return: inactive

Enquiry: Returns: the outcome recorded for CCCC[C@H]1CN(CC2CCOCC2)C(=O)OC12CCN(C1(C)CCN(C(=O)c3c(C)ncnc3C)CC1)CC2 in this assay.
Return: inactive

Enquiry: Returns: the outcome recorded for O=[N+]([O-])c1cccc(Cl)c1Cl in this assay.
Return: inactive

Enquiry: Returns: the outcome recorded for N=C(N=C(N)N)N1CCOCC1 in this assay.
Return: inactive

Enquiry: Returns: the outcome recorded for CC(=O)Nc1ccc(/C=N/NC(N)=S)cc1 in this assay.
Return: inactive

Enquiry: Returns: the outcome recorded for CCCCCCCCCC(=O)OCC in this assay.
Return: inactive

Enquiry: Returns: the outcome recorded for CCCCCCCCCCCCCCCCCBr in this assay.
Return: inactive

Enquiry: Returns: the outcome recorded for CCCCOC(=O)c1ccccc1C(=O)OCC(CC)CCCC (stereo unspecified) in this assay.
Return: inactive

Enquiry: Returns: the outcome recorded for O=C(O)c1cccc(N(Cc2cccnc2)c2ccc(OC(F)F)c(OC(F)F)c2)c1 in this assay.
Return: inactive

Enquiry: Returns: the outcome recorded for Nc1nc(N)c(-c2ccccc2)s1 in this assay.
Return: inactive
